Molecular target: T1, N-terminal domain of hCD73 (residues 26-336 of human CD73), His-tagged (human, UniProt P21589 26-336)
T1 construct: also called N-hCD73; N-hCD73-his
T1 sequence: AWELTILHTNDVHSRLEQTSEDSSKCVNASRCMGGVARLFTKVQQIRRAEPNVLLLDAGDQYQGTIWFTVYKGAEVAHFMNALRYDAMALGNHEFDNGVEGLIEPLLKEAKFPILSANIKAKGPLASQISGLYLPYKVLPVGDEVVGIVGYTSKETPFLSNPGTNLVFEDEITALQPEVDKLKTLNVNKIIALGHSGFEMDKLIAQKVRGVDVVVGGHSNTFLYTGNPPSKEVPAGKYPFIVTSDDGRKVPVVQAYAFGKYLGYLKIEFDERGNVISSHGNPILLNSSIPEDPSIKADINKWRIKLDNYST
Assay: SPR, mAb captured on protein A
condition met means recorded kon is 600000 M⁻¹ s⁻¹ or above; condition not met means it is below 600000 M⁻¹ s⁻¹.

The following binders have reported results that may help.
{"BINDER": "7A11 (antibody, human IgG1, kappa, V domains shown, IgG1za from hybridoma; also called 7A11-1) VH: EVQLVESGGGLVQTGRSLRLSCAASGFTFDDYAMHWVRQAPGKGLEWVSDISWNSDIIGYADSVKGRFTISRDNAKNSLYLQMNSLRAEDTALYYCAKDIYGSGSSFFDYWGQGILVTVSS VL: DIQMTQSPSSLSASVGDRVTITCRASQYISSWLAWYQQKPEKAPKSLIYAASSLQSGVPSRFSGSGSGTDFTLTISSLQPEDFATYYCQQYHSYPPTFGQGTRLEIKR", "CLASS": "condition met"}
{"BINDER": "24H2 (antibody, human IgG4, kappa, V domains shown, also called 24H2-1) VH: QVQLVESGGGVVQPGRSLRLSCAASGFTFSNYGMHWVRQAPGKGLEWVAVIWYDGGNKYYADSVKGRFTISRDNSKNTLFLQMNSLRAEDTAVYYCARGGSSWYPDAFDIWGQGTMVTVSS VL: DIQMTQSPSSLSASVGDRVTITCRASQGISSWLAWYQQKPEKAPKSLIYAASSLQSGVPSRFSGSGSGTDFTLTISSLQPEDFATYYCQQYNSYPLTFGGGTKVEIKR", "CLASS": "condition not met"}
{"BINDER": "11A6 (antibody, human IgG1, kappa, V domains shown, IgG1za from hybridoma; also called 11A6-1) VH: EVQLVESGGNLVQPGRSLRLSCAASGFTFDDYAMHWVRQAPGKGLEWVSGISWNNNDIGYADSVKGRFIISRDNAKNSLYLQMNSLRPEDTALYYCVKGYYVILTGLDYWGQGTPVTVSS VL: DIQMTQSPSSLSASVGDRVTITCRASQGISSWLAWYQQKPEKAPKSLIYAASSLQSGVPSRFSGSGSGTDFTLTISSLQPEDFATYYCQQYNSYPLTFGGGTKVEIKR", "CLASS": "condition not met"}

Does 5F8 (antibody, human IgG1, kappa, V domains shown, IgG1za from hybridoma; predominant light chain VK1, VK2 also expressed; also called 5F8-1) VH: EVQLVESGGGLVQPGGSLRLSCAASGFTFSSYWMHWVRQAPGKGLVWVSRIISDGSSTGYADSVKGRFTISRDNAKNTLYLQMNSLRAEDTAVYYCAREFSSGWYFDYWGQGTLVTVSS VL: AIQLTQSPSSLSASVGDRVTITCRASQGISSALAWYQQKPGKAPKLLIYDASSLESGVPSRFSGSGSGTDFTLTISSLQPEDFATYYCQQFSSYPRTFGQGTKVEIKR have a reported kon of at least 600000 M⁻¹ s⁻¹?
condition not met
